TESTED ON: GSK3A (Homo sapiens, UniProt P49840)
Construct: endogenous in cells
Sequence (P49840 whole entry): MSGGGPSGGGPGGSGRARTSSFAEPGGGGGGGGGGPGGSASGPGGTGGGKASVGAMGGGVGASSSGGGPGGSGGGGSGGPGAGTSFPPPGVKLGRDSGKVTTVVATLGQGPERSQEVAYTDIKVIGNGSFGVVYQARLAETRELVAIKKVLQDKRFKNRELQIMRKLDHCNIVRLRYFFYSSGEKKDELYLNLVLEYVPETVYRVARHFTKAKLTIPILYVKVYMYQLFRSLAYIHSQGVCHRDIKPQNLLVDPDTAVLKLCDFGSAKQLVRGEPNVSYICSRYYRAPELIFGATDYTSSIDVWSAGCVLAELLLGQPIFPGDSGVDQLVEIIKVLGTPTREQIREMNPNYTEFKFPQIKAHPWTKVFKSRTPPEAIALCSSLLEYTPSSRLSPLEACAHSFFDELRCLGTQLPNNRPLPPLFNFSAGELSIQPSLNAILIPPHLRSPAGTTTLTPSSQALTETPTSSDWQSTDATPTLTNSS
MEASUREMENT DESCRIPTION: Kinobeads competition binding: GSK3A
TEST SETTINGS: target GSK3A
RESULT TYPE: CATDS
Lab note: jot down the number only; don't add units.

Here are 3 compounds together with their reported answers.
Which measured CATDS value corresponds to CN(C)C/C=C/C(=O)Nc1cc2c(Nc3ccc(F)c(Cl)c3)ncnc2cc1O[C@H]1CCOC1 [Afatinib] ?
0

Can you share its CATDS? I mean this compound: CCN1CCN(Cc2ccc(Nc3ncc(F)c(-c4cc(F)c5nc(C)n(C(C)C)c5c4)n3)nc2)CC1 [Abemaciclib]
0.08929

Given the compound N#CC1(c2ccc(NC(=O)c3cccnc3NCc3ccncc3)cc2)CCCC1 [Apatinib] , what is its reported CATDS?
0

***
# CATDS lookup, item CCc1cc2c(cc1N1CCC(N3CCOCC3)CC1)C(C)(C)c1[nH]c3cc(C#N)ccc3c1C2=O [Alectinib]
0

Query: CATDS; subject: Nc1ncnc2[nH]c(-c3ccccc3)nc12 [AH5015_KCGS]
0.1015
